- Tested on: HEK-293T
- assay-summary: Multiplex assay against HEK293T
- Format: toxicity, cell-based
- conditions: human, 12 h, 10 µM, compound concentration 10 uM, replicate 2
endpoint-label: Population Pyknosed Nuclei (%)

In [3]: df
Out[3]:
                                   molecule                  endpoint_label  measured_result
0  CCc1ccc(OCc2ccccc2C(=O)Nc2ccc3nc(C)cc(N)c3c2)cc1.Cl  Population Pyknosed Nuclei (%)               51
1  CC(C)OC(=O)N1CCC(Oc2ncnc3c2cnn3-c2ccc(S(C)(=O)=O)cc2F)CC1  Population Pyknosed Nuclei (%)               49
2  C=CC(=O)Nc1cccc(Sc2nc(Nc3ccc(N4CCN(C)CC4)cc3)ncc2Cl)c1  Population Pyknosed Nuclei (%)                7
3  Cc1nc(N2CC[C@H](O)C2)ncc1-c1cc(C(F)(F)F)cc2[nH]ncc12  Population Pyknosed Nuclei (%)                4
4  CC(C)CC(=O)Nc1[nH]nc2c1CN(C(=O)C1CCN(C)CC1)C2(C)C  Population Pyknosed Nuclei (%)                2
5  C=CC(=O)Nc1ccc2[nH]c(=O)n(C3CCN(Cc4ccc(-c5nc6cc[nH]c(=O)c6cc5-c5ccccc5)cc4)CC3)c2c1  Population Pyknosed Nuclei (%)               11
6  Cc1ccc2c(c1)c1c(n2CCc2ccc(C)nc2)CCN(C)C1 [LATREPIRDINE]  Population Pyknosed Nuclei (%)               80
7  O=c1cc(N2CCOCC2)oc2c(-c3cccc4c3sc3ccccc34)cccc12  Population Pyknosed Nuclei (%)               83

* * *

- Test system: HEK-293T
- assay-summary: Multiplex assay against HEK293T
- Type: toxicity, cell-based
- conditions: human, 12 h, 10 µM, compound concentration 10 uM, replicate 2
endpoint-label: Population Fragmented Nuclei (%)

>>> df
                               input_smiles  measured_result
0  C[C@]12CC[C@@H]3c4ccc(O)cc4CC[C@H]3[C@@H]1CC[C@@H]2O               5%
1  CC(C)OC(=O)N1CCC(Oc2ncnc3c2cnn3-c2ccc(S(C)(=O)=O)cc2F)CC1               5%
2  Cc1c[nH]c2nccc(Oc3c(F)cc(Nc4cc(Cl)nc(N)n4)cc3F)c12               5%

* * *

- System: HEK-293T
- assay-summary: Multiplex assay against HEK293T
- Type: toxicity, cell-based
- conditions: human, 48 h, 1 µM, compound concentration 1 uM, replicate 1
endpoint-label: Population Hoechst High Intensity Objects (%)

>>> print(df.to_string())
                               input_smiles  measured_result
0  COc1ccc(-c2ccc3ncc4c(c3c2)n(-c2ccc(N3CCNCC3)c(C(F)(F)F)c2)c(=O)n4C)cn1.O=C(O)/C=C\C(=O)O              21%
1  C[C@]12CC[C@@H]3c4ccc(O)cc4CC[C@H]3[C@@H]1CC[C@@H]2O              13%
2  CC(C)OC(=O)N1CCC(Oc2ncnc3c2cnn3-c2ccc(S(C)(=O)=O)cc2F)CC1              16%

* * *

- System: Fibroblast
- assay-summary: Multiplex assay against human fibroblast
- Assay type: toxicity, cell-based
- conditions: 48 h, 1 µM, compound concentration 1 uM, replicate 2
Population Tubulin-Different-Phenotype (%) under 40% gets true, anything at or over 40% gets false.

                                   compound  assayed_system  assigned_class
0  CNC(=O)Nc1ccc(-c2nc(N3CC4CCC(C3)O4)c3cnn(C4CCC5(CC4)OCCO5)c3n2)cc1      Fibroblast            true
1  CCc1ccc(OCc2ccccc2C(=O)Nc2ccc3nc(C)cc(N)c3c2)cc1.Cl      Fibroblast           false
2  COC(=O)C1=C(C)NC(C)=C(C(=O)OCCCN2CCC(c3ccccc3)(c3ccccc3)CC2)[C@H]1c1cccc([N+](=O)[O-])c1 [NIGULDIPINE]      Fibroblast           false
3  Cc1cccc(CN2CCN(C(c3ccccc3)c3ccc(Cl)cc3)CC2)c1.Cl.Cl (stereo not drawn)      Fibroblast           false
4  Cc1c[nH]c2nccc(Oc3c(F)cc(Nc4cc(Cl)nc(N)n4)cc3F)c12 [BAY-549]      Fibroblast            true
5  CC(C)NC(=O)N1CC[C@H](NC2=Nc3cc(F)ccc3N(CC(F)F)c3ccc(Cl)cc32)C1      Fibroblast            true
6  CC(C)c1noc(N2CCC(COc3ccc(-c4ccc(S(C)(=O)=O)cc4)nc3)CC2)n1 [GSK-1292263]      Fibroblast           false
7  COc1ccc(-c2ccc3ncc4c(c3c2)n(-c2ccc(N3CCNCC3)c(C(F)(F)F)c2)c(=O)n4C)cn1.O=C(O)/C=C\C(=O)O [BGT-226]      Fibroblast           false

* * *

Entries and their measured Population Mitotic Cells (%) follow.
- System: HEK-293T
- assay-summary: Multiplex assay against HEK293T
- Assay type: toxicity, cell-based
- conditions: human, 24 h, 1 µM, compound concentration 1 uM, replicate 1
endpoint-label: Population Mitotic Cells (%)

>>> df
                               input_smiles  measured_result
0  C=CC(=O)Nc1ccc2[nH]c(=O)n(C3CCN(Cc4ccc(-c5nc6cc[nH]c(=O)c6cc5-c5ccccc5)cc4)CC3)c2c1              84%
1  CC(C)c1noc(N2CCC(COc3ccc(-c4ccc(S(C)(=O)=O)cc4)nc3)CC2)n1              60%
2  CCOC(=O)Nc1cc(-c2ccc(C)c(NS(C)(=O)=O)c2)nn2c(C)nnc12              86%

* * *

- System: HEK-293T
- assay-summary: Incucyte cell viability with HEK293T; note: filed as whole numbers so only -1 and 0 and 1 occur
- Type: toxicity, cell-based
- conditions: human, 12 h, 10 µM, compound concentration 10 uM, replicate number 1, timepoint 12 hours
Entries and their measured Growth Rate follow.
endpoint-label: Growth Rate

                                   compound  measured_result
0  Cc1nc(N2CC[C@H](O)C2)ncc1-c1cc(C(F)(F)F)cc2[nH]ncc12                0
1  C=CC(=O)Nc1cccc(Sc2nc(Nc3ccc(N4CCN(C)CC4)cc3)ncc2Cl)c1                0
2  COC(=O)C(Cc1ccc(OCCn2c(=O)sc3cc(C(=O)c4ccccc4)ccc32)cc1)C(=O)OC                0
3  O=C(NCc1ncc(C(F)(F)F)cc1Cl)c1ccc2c(c1)C1(CCS(=O)(=O)CC1)[C@@H](C1CC1)N2S(=O)(=O)c1ccc(F)cc1 [BAY-786]                0
4  CN(c1ccccc1CNc1nc(Nc2ccc3c(c2)CC(=O)N3)ncc1C(F)(F)F)S(C)(=O)=O                0
5  Cc1cccc(CN2CCN(C(c3ccccc3)c3ccc(Cl)cc3)CC2)c1.Cl.Cl (stereo not given)                0
6  CN1CCN(Cc2ccc(Nc3ncc(Cl)c(Nc4ccccc4S(=O)(=O)N(C)C)n3)cc2)CC1 [DUBERMATINIB]                1
7  Cc1ccccc1C(=O)Nc1ccc(C(=O)N2CCCC(O)c3cc(Cl)ccc32)c(C)c1 (stereo not given) [TOLVAPTAN]                0
8  CN1CCN(Cc2cc(NC(=O)c3ccc4c(c3)CN(c3ccccc3)CC4)cc(C(F)(F)F)c2)CC1                0
9  CC1CCN(CC[C@H]2CCCN2S(=O)(=O)c2cccc(O)c2)CC1.Cl                1

* * *

Entries and their measured Population Mitotic Cells (%) follow.
- Tested on: U2OS
- assay-summary: Multiplex assay against U2OS
- Format: toxicity, cell-based
- conditions: human, 12 h, 1 µM, compound concentration 1 uM, replicate 1
endpoint-label: Population Mitotic Cells (%)

>>> print(df.to_string())
                                    compound  measured_result
 0  O=c1cc(N2CCOCC2)oc2c(-c3cccc4c3sc3ccccc34)cccc12               65
 1  CNC(=O)Nc1ccc2c(c1)[C@@]1(CC2)OC(=O)N(CC(=O)N(Cc2ccc(F)cc2)[C@@H](C)C(F)(F)F)C1=O [A-486]               52
 2  CCc1nn(CCCN2CCN(c3cccc(Cl)c3)CC2)c(=O)n1CCOc1ccccc1.Cl [NEFAZODONE HYDROCHLORIDE]               57
 3  COc1cc2ncn(-c3cc(OCc4ccccc4C(F)(F)F)c(C(N)=O)s3)c2cc1OC [GW843682X]               45
 4  Cc1ccc2c(c1)c1c(n2CCc2ccc(C)nc2)CCN(C)C1 [LATREPIRDINE]               46
 5  CC1=C(C(=O)Nc2cc3cn[nH]c3cc2F)C(c2ccc(C(F)(F)F)cc2)CC(=O)N1 (stereo not drawn)               53
 6  CC(C)Oc1ccccc1C(=O)Nc1ccccc1C(=O)Nc1cccc(S(=O)(=O)C(F)(F)F)c1               52
 7  O=C(c1cc2c(cc1F)OC(c1ccc(F)cc1)(c1ccc(Cl)cc1Cl)O2)N1CCOCC1 (stereo not drawn)               42
 8  CCOC(=O)Nc1cc(-c2ccc(C)c(NS(C)(=O)=O)c2)nn2c(C)nnc12               16
 9  COc1ccccc1CN[C@H]1C2CCN(CC2)[C@H]1C(c1ccccc1)c1ccccc1 [CP-96345]               77
10  O=c1[nH]c2ccccc2n1C1CCN(Cc2ccc(-c3[nH]c4cc5ncnc5cc4nc3-c3ccccc3)cc2)CC1               55
11  CC(C)(C)NC[C@H](O)COc1nsnc1N1CCOCC1 [TIMOLOL]               22
12  CC(C)OC(=O)N1CCC(Oc2ncnc3c2cnn3-c2ccc(S(C)(=O)=O)cc2F)CC1               42

Data credit: ChEMBL document CHEMBL4689842
